Examples of molecules with documented AC50 follow.
# SYSTEM NAME: human PAH with the R408W mutation (Homo sapiens, UniProt P00439, R408W)
# Construct: expressed in transfected cells
# METHOD NOTES: Cell Based Phenylalanine Flux Assay
# PARTICULARS: A375 cells expressing human R408W PAH; 24 hrs compound incubation; 13C-Tyrosine by LC-MS; average where tested multiple times; read-out: AC50

smiles_code=O=C(c1nnc(-c2ncccn2)o1)N1CCc2[nH]cnc2[C@@H]1c1cc2c(C(F)(F)F)cccn2n1 result="1 to 5 µM"

In: Consider the molecule N#Cc1ncoc1C(=O)N1CCc2[nH]cnc2[C@H]1c1cc2ccc(Cl)cn2n1 and give its measured AC50.
Out: 0.5 to 1 µM

In: Consider the molecule Cn1nc(Cl)nc1C(=O)N1CCc2[nH]cnc2[C@@H]1c1cc2c(Cl)cccn2n1 and give its measured AC50.
Out: 1 to 5 µM

====

# SYSTEM NAME: human PAH with the R408W mutation (Homo sapiens, UniProt P00439, R408W)
# Construct: expressed in transfected cells
# METHOD NOTES: Cell Based Phenylalanine Flux Assay
# PARTICULARS: A375 cells expressing human R408W PAH; 24 hrs compound incubation; 13C-Tyrosine by LC-MS; average where tested multiple times; read-out: AC50
PROPERTY LABEL: AC50

compound="Cn1cc(-c2nnc(C(=O)N3CCc4[nH]cnc4[C@H]3c3cc4c(Cl)cccn4n3)o2)cn1 [Example 688]" result="< 500 nM"

As a next step, examine the compound that follows.
In: Consider the compound CC(C)c1nnc(C(=O)N2CCc3[nH]cnc3[C@@H]2c2cc3c(C(F)(F)F)cccn3n2)o1 [Example 1487] and give its measured AC50.
Out: > 5000 nM

====

# SYSTEM NAME: human PAH with the R408W mutation (Homo sapiens, UniProt P00439, R408W)
# Construct: expressed in transfected cells
# Sequence (P00439 1-452 R408W): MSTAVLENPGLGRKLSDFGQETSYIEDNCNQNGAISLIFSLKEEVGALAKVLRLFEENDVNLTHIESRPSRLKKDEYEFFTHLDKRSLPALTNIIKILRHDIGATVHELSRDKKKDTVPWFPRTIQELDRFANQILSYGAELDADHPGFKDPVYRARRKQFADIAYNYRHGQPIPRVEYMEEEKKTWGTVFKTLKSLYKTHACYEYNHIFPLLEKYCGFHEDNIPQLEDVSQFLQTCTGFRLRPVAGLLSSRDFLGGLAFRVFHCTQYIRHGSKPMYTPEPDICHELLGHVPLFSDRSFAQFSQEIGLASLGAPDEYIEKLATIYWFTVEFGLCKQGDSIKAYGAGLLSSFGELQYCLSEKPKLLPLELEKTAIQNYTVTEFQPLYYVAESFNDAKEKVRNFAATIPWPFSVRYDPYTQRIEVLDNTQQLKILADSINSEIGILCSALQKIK
# METHOD NOTES: Cell Based Phenylalanine Flux Assay;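 also: after compound treatment, cells received sepiapterin plus isotope-labelled Phenylalanine for 4 hours, then labelled Tyrosine in the medium was quantified, 10-point 2-fold dilution series run in duplicate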
# PARTICULARS: A375 cells expressing human R408W PAH; 24 hrs compound incubation; 13C-Tyrosine by LC-MS; average where tested multiple times; read-out: AC50
Examples of compounds with documented AC50 follow.

compound="O=C(CC1CC1)N1CCc2[nH]cnc2[C@H]1c1cc2ccccn2n1 [Example 614]" property_label=AC50 result="< 0.5 µM"

In: Consider the compound Cc1cccc2cc([C@H]3c4nc[nH]c4CCN3C(=O)c3oc([C@@H](C)O)nc3C(F)F)nn12 [Example 1165] and give its measured AC50.
Out: 1 to 5 µM

In: Consider the compound CC1(c2nnc(C(=O)N3CCc4[nH]cnc4[C@H]3c3cc4c(C(F)(F)F)cccn4n3)o2)CC1 [Example 1325] and give its measured AC50.
Out: < 0.5 µM

In: Consider the compound Clc1cccn2nc([C@@H]3c4nc[nH]c4CCN3c3ncccn3)cc12 [Example 1664] and give its measured AC50.
Out: < 0.5 µM

In: Consider the compound Cc1nn(C)cc1-c1nnc(C(=O)N2CCc3[nH]cnc3[C@H]2c2cc3c(F)cccn3n2)o1 [Example 846] and give its measured AC50.
Out: < 0.5 µM

In: Consider the compound O=C(c1nnc(C2CC2)o1)N1CCc2[nH]cnc2[C@@H]1c1cc2c(Cl)cccn2n1 [Example 1095] and give its measured AC50.
Out: > 5 µM

In: Consider the compound Cn1cc(-c2nnc(C(=O)N3CCc4[nH]cnc4[C@H]3c3cc4c(F)cccn4n3)o2)cn1 [Example 728] and give its measured AC50.
Out: < 0.5 µM
